Listing of recorded kr (S* to S) by entry.
Target: T1, NativeRPtag(large)_with_Tags_and_Cys (Thermoanaerobacter tengcongensis)
T1 construct: Unlabeled in anisotropy assays; coupled through the engineered N-terminal Cys to SulfoLink agarose or maleimide plates in column, pull-down and ELISA assays
T1 chain: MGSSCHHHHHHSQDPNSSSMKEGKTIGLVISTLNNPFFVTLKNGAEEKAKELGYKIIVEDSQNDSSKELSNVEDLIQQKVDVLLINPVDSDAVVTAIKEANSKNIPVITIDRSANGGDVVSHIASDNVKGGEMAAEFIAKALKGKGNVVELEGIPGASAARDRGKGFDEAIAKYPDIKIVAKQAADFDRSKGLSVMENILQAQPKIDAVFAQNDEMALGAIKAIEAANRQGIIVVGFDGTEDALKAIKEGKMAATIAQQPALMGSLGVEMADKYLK
Protocol Notes: fluorescence anisotropy, association kinetics
No end group written: not given here. *: point of attachment. RhodamineB = CCN(CC)c1ccc2c(-c3ccccc3C(=O)*)c3ccc(=[N+](CC)CC)cc-3oc2c1

[
  {
    "Binder": "RhodamineB-KIANFIPAELKLITK [RPtag(small) Nd2, Cd4, p5a]",
    "Unit Of Measurement": "min⁻¹",
    "kr (S* to S)": 0.14
  },
  {
    "Binder": "RhodamineB-GEKIPNFIAAELKLITKENVQ [RPtag(small) p9a]",
    "Unit Of Measurement": "min⁻¹",
    "kr (S* to S)": 0.04
  },
  {
    "Binder": "RhodamineB-GEKIPNFIPAELKLATKENVQ [RPtag(small) i15a]",
    "Unit Of Measurement": "min⁻¹",
    "kr (S* to S)": 0.053
  }
]

These entries and their values trace back to patent US20200102347A1.
